- TEST_METHOD_NOTES: chemical genetic growth profiling, strain panel (AID 1159580);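 note: tested at 20 µM; growth read once vehicle control cultures reached saturation at 30 °C; 1 = growth at the plate median or of vehicle wells; lower values mean less growth of the strain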
- ASSAY_CONDITIONS: S. cerevisiae deletion strains, growth OD, locus YLR102C, strain apc9, stronger effect = lower value
Hit rate of the full screen: of about 5,500 compounds, about 2,000 (36%) were called active. Roughly 18% stayed inconclusive and do not appear here. The list shows a part of the results.
Listing of recorded normalized growth by entry.
A bare number is all that is needed in reply.

| MOLECULE | OUTCOME_MEASURE | READING |
| --- | --- | --- |
| Cn1c(=O)c2[nH]c(C3CCCC3)nc2n(C)c1=O | normalized growth | 0.999 |
| NCCc1ccc(O)cc1 | normalized growth | 0.999 |
| COc1ccc(C(=O)/C=C/c2ccccc2)cc1 | normalized growth | 0.964 |
| CC(=O)O[C@H]1C[C@@H](O)C(C)(C)C2C[C@@H](OC(C)=O)[C@]3(C)C(CC[C@@]4(C)[C@H](c5ccoc5)OC(=O)C5OC543)[C@]21C (some centres undefined) | normalized growth | 0.984 |
| O=C(/C=C/c1ccccc1)c1ccc(O)cc1 | normalized growth | 0.922 |

Query (molecule): CC(=O)OC1CC2C(C)(C)CCCC2(C)C2CCC3(C)C(c4ccoc4)OC(=O)C4OC43C12C (centres undefined) ; field requested: normalized growth
1.01

Query (molecule): C=C1C(N)CC2CC1C2(C)C (centres undefined) ; field requested: normalized growth
1

Query (molecule): CC1NC(=O)NC1=O (centres undefined) ; field requested: normalized growth
1.01

Query (molecule): CC(=O)O[C@@H]1CC2C(C)(C)C(=O)CC[C@]2(C)C2CC[C@@]3(C)[C@H](c4ccoc4)OC(=O)C4OC43[C@@]21C (some centres undefined) ; field requested: normalized growth
1.01
